system: MSSA ATCC13709 (Smith); experiment: Resistant strains assay (broth microdilution MIC); assay type: cell-based; conditions: Staphylococcus aureus
ENDPOINT_NAME: MIC (µg/mL)
Numbers only, in µg/mL.

Take a look at these entries with their results.
// MIC lookup, compound = C[C@@H]1CN(c2c(F)c(N)c3c(=O)c(C(=O)O)cn(C4CC4)c3c2F)C[C@H](C)N1 [Sparfloxacin, reference compound] , result: 0.062

# MIC of COc1ccc2nccc(-n3cc4c(n3)CCC(NC/C=C/c3ccccc3)C4)c2c1 (stereo not shown) [Example 55] = 0.5

Entry COc1ccc2nccc(-n3cc4c(n3)CCC(NC(=O)c3cc5c(cc3F)SCC(=O)N5)C4)c2c1 (stereo not shown) [Example 18] , MIC reported as 0.031

Now turn to the next compound.
Data point: O=C1CSc2ccc(C(=O)NC3CCc4nn(-c5cccc6cccnc56)cc4C3)cc2N1 (stereo not shown) [Example 31] ; MIC = 0.25

---

I'd appreciate it if you could supply MIC values for the items below.
tested on: MSSA ATCC13709 (Smith); test: Resistant strains assay (broth microdilution MIC); assay type: cell-based; conditions: Staphylococcus aureus
Numbers only, in µg/mL.

Memo: COc1ccc2nccc(-n3cc4c(n3)CCC(NC(=O)c3cc5c(cc3F)SCC(=O)N5)C4)c2n1 (stereo not shown) , reported MIC: 0.25

List the reported MIC of each molecule below.
1. COc1ccc2nccc(-n3cc4c(n3)CCC(NC/C=C/c3ccccc3)C4)c2n1 (stereo not shown)
2. COc1ccc2nccc(-n3cc4c(n3)CCC(NC(=O)c3ccc5c(c3)NC(=O)CS5)C4)c2n1 (stereo not shown)

Data returned:
1: 0.062; 2: 0.06

---

test system: S. aureus ATCC13709; experiment: In vitro antibacterial activity (MIC assay), broth microdilution; assay type: cell-based; conditions: Staphylococcus aureus, ATCC13709; read-out: S. aureus ATCC13709 MIC
ENDPOINT_NAME: MIC (µg/mL)
Answers are plain numbers, in µg/mL.

Please review the entries below; each comes with its answer.
Item: COc1ccc2nccc(-n3cc4c(n3)CCC(NCc3cc5c(cc3F)SCCN5)C4)c2c1 (centres unmarked) [Example 106] | MIC: 0.5

The reported MIC of the compound COc1ccc2nccc(-n3cc4c(n3)CCC(NC(=O)/C=C/c3ccccc3)C4)c2n1 (centres unmarked) [Example 10] was 0.25

# compound COc1ccc2nccc(-n3cc4c(n3)CCC(NCc3cc5c(cc3F)OCCO5)C4)c2c1 (centres unmarked) [Example 51] ; its MIC = 1

State the recorded MIC for every item in the following list.
1. COc1ccc2nccc(-n3cc4c(n3)CCC(NCc3ccc5c(c3)OCO5)C4)c2n1 (centres unmarked) [Example 37]
2. COc1ccc2nccc(-n3cc4c(n3)CCC(NC(=O)/C=C/c3cc(F)ccc3C(F)(F)F)C4)c2n1 (centres unmarked) [Example 91]

Data returned:
1: 0.5; 2: 4

Return reported MIC values for all items listed beneath this line.
1. COc1ccc2nccc(-n3cc4c(n3)CCC(NC(=O)/C=C/c3ccc(F)c(F)c3)C4)c2n1 (centres unmarked) [Example 93]
2. COc1ccc2nccc(-n3cc4c(n3)CCC(N(Cc3ccccc3)Cc3ccc5c(c3)NC(=O)CS5)C4)c2n1 (centres unmarked) [Example 66]

Data returned:
[0.25, 8]
